Biological target: T1, IL-6R-Fc 항원 (human, UniProt P08887 20-365, limits assumed)
T1 construct: domain: IL-6R full domain; Made in-house as IL-6R-Fc; also called IL-6R full; IL-6R full domain인 단백질; not shown: Fc part (vector pYK 604)
T1 sequence (looked up): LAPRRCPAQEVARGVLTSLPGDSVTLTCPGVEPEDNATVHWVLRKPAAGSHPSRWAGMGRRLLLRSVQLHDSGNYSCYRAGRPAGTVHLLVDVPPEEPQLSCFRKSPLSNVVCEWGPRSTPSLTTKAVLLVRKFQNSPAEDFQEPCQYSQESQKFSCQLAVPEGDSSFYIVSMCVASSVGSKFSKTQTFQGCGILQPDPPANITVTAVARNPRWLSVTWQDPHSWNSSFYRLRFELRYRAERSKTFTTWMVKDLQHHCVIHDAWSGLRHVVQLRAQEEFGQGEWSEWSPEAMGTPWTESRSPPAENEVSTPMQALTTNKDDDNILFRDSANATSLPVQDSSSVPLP
Experiment: ELISA; IL-6R coated 100 ng/well; IgG at 12.5 nM; anti-Fab-HRP
VALUE_KIND: OD 490 nm

Record 항 IL-6R 단클론 항체 F2 (antibody, V domains shown) VH: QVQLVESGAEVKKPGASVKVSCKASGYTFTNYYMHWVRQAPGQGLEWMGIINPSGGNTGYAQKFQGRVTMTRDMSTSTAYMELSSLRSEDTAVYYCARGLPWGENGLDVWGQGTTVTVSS VL: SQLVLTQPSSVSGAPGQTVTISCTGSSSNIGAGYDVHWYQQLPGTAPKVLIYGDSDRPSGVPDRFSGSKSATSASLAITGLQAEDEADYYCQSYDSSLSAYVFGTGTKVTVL . Reported OD 490 nm: 2.92 OD490

Reported OD 490 nm for 항 IL-6R 단클론 항체 D2 (antibody, V domains shown) VH: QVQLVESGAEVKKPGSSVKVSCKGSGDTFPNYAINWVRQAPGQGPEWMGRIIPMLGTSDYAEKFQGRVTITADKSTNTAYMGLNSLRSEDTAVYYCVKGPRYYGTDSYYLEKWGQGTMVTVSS VL: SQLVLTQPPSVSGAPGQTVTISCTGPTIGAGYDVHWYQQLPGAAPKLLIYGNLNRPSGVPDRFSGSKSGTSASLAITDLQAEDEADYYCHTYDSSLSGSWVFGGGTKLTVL was 1.47 OD490

According to the records, this binder 항 IL-6R 단클론 항체 A7 (antibody, V domains shown) VH: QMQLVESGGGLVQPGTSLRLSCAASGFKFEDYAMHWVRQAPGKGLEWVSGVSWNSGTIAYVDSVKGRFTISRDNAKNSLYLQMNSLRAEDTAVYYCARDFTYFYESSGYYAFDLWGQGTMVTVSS VL: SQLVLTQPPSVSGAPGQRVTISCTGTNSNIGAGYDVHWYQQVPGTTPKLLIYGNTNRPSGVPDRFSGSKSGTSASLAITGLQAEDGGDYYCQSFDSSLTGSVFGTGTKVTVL displays OD 490 nm of 2.58 OD490

Data point: 항 IL-6R 단클론 항체 B10 (antibody, V domains shown) VH: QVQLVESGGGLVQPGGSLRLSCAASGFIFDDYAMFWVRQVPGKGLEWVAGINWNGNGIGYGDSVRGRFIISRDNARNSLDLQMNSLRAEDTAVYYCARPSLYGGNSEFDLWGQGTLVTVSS VL: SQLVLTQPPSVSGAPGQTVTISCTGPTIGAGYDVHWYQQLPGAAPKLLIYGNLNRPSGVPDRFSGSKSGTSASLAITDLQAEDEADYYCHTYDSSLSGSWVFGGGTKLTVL ; OD 490 nm = 1.39 OD490
